- target-or-system: T1, human CDH6 (full-length and EC domain deletion mutants) (Homo sapiens, UniProt P55285, DEL160-268)
- T1 construct: each one of the five EC domains could be deleted from full-length human CDH6; 3xFLAG (deletion mutants only, from the vector p3×FLAG-CMV-9); expressed in transfected cells; host or cells: 293α cells
- T1 sequence (P55285 with tags, fused parts or gaps DEL160-268): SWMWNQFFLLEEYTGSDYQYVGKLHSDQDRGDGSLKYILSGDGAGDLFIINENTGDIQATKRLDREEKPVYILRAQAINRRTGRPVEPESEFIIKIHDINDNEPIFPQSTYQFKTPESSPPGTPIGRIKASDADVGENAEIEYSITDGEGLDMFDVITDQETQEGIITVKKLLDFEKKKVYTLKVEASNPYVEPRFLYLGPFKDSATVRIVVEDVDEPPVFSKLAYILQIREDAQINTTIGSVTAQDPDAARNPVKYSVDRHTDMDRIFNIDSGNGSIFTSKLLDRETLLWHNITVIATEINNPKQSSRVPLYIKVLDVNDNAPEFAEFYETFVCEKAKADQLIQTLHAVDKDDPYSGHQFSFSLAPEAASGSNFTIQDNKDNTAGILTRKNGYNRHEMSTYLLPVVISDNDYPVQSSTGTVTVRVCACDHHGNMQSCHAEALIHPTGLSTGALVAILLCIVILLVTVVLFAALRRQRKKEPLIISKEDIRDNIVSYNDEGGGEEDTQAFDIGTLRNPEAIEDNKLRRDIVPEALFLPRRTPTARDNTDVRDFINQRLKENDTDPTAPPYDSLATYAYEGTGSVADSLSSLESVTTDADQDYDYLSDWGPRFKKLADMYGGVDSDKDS
- assay-method-text: Epitope analysis of rat anti-CDH6 antibody by flow cytometry using domain deletion mutants
- Assay type: binding
- run-conditions: flow cytometry; transfected 293α cells; antibody 20 nM
reported-metric: binding to EC2 deletion mutant

Suppose we examine the molecule rG056: rat anti-human CDH6 monoclonal antibody produced by hybridoma rG056; variable regions SEQ ID NO: 30 and 35 (antibody, listed as Rattus norvegicus, V domains shown) VL: DVQMTQSPSSLAASPGESVSISCRATKSIGIYLAWYQQKPGKTFKLLIYSGSTLQSGTPSRFSGSGSGTDFTLTIRSLEPEDFGLYFCQQFYENPFTFGSGTKLEIRRA VH: EVQLQESGPGLVKPSQSLSLTCSVTDYSITTYFWGWIRKFPGNKMEWMGYMSYRGGTSYNPSLKSRISITRDTSKNQFFLQLNSVTTEDTATYYCARCPNYGGHSLVFDYWGQGVMVTVSS ; what binding to EC2 deletion mutant value has been reported?
bind

Entry rG019: rat anti-human CDH6 monoclonal antibody produced by hybridoma rG019; variable regions SEQ ID NO: 10 and 15 (antibody, listed as Rattus norvegicus, V domains shown) VL: DIQMTQSPSLLSASVGDRVTLNCKASQNIYKNLAWYQQKLGEGPKLLIYDANTLQTGIPSRFSGSGSGSDFTLTISSLQPEDVATYFCQQYYSGWAFGGVTNLELKRA VH: QVQLQQSGAELVKPGSSVKISCKASGYTFTRNFMHWIKQQPGNGLEWIGWIYCGDGETEYNQKFNGKATLTADRSSSTAYMELSRLTSEDSAVYFCARGVYGGFAGGYFDFWGQGVMVTVSS please
bind
